Recorded values, source paper PMC6792352.

Tested on: GH3-TRE-Luc cell line
Conditions: read-out: AC50 (uM) modified / 1000; Tox21_110001=Tox21_300400; viability, 1 nM T3 present, 24 h
experimental_endpoint: CC50 (µM)
Could you give me the number in µM? Just the number is fine.

Query: Entry CCC(C)(C)C(=O)O[C@H]1C[C@@H](C)C=C2C=C[C@H](C)[C@H](CC[C@@H]3C[C@@H](O)CC(=O)O3)[C@H]21 [Simvastatin] : reported CC50 = ?
Reply: 72.4

---

Please respond with reported CC50 at 24 h for every item in the list.
Experiment: in vitro
Conditions: rat, gh3-tre-luc cells, AC50 (uM) modified / 1000
Structures can show the parent of a compound that is named as a salt.
Return type: number; implicit unit µM.

Query: Dear colleague, I am looking for the recorded CC50 at 24 h of the following compound: OC(CCN1CCCCC1)(c1ccccc1)C1CC2C=CC1C2 (stereo not shown) [Biperiden hydrochloride]
Reply: 22.6

Query: Please give the measured CC50 at 24 h for this compound: CCN(CC)CCn1c(=O)c(Cc2ccc(OC)cc2)nc2ccccc21 [Caroverine hydrochloride]
Reply: 19.1

Query: Please report the recorded CC50 at 24 h for CN(C)CCOC1=Cc2ccccc2Sc2ccc(Cl)cc21 [Zotepine] .
Reply: 6.89

Query: What measured CC50 at 24 h goes with OCc1cc(C(O)CNCCCCCCOCCCCc2ccccc2)ccc1O (stereo not shown) ?
Reply: 10.6

---

Hi there, I'd appreciate the recorded CC50 at 24 h for every entry that follows.
Assay: in vitro
Details: rat, gh3-tre-luc cells, AC50 (uM) modified / 1000

Query: CC50 at 24 h; subject: O=C1c2c(O)cccc2[C@H]([C@@H]2O[C@H](CO)[C@@H](O)[C@H](O)[C@H]2O)c2cc(CO)cc(O)c21 [Aloin A]
Reply: > 50 µM

Query: Item under review: CC(=O)C1CCOC1=O (stereo not shown) [3-Acetyldihydro-2(3H)-furanone] . Reported CC50 at 24 h?
Reply: > 100 µM

Query: Which CC50 at 24 h is reported for this compound? CC(=O)O[C@]1(C(C)=O)CC[C@H]2[C@@H]3C=C(Cl)C4=CC(=O)CC[C@]4(C)[C@H]3CC[C@@]21C [Chlormadinone acetate]
Reply: 90.1 µM

Query: Requested read-out: CC50 at 24 h. Entry: O=[N+]([O-])c1ccc(Cl)cc1Cl [2,4-Dichloronitrobenzene]
Reply: > 90 µM

---

Test system: GH3-TRE-Luc cell line
Settings: read-out: AC50 (uM) modified / 1000; Tox21_110001=Tox21_400072; viability, 1 nM T3 present, 24 h
experimental_endpoint: CC50 (µM)
Provide the reading as a plain figure in µM.

Query: For the compound shown here, "CCN(CC)C(=S)SSC(=S)N(CC)CC" , give the reported CC50.
Reply: 81.5

---

Assay: in vitro
Conditions: rat, gh3-tre-luc cells, AC50 (uM) modified / 1000, Tox21_110001=Tox21_302159; viability, 1 nM T3 present, 24 h
experimental_endpoint: CC50 at 24 h

Query: Entry under review: "O=C(Cc1ccccc1)c1ccccc1" . Reported CC50 at 24 h?
Reply: > 90 µM

---

Assignment: determine reported CC50 at 24 h for the given compounds.
Assay: in vitro
Details: rat, gh3-tre-luc cells, AC50 (uM) modified / 1000

Query: Any idea what its CC50 at 24 h is? The compound is CC(C)(Cc1c[nH]c2ccccc12)NCC(O)COc1ccccc1C#N (centres unmarked)
Reply: 20.5 µM

Query: Reported CC50 at 24 h for "O=C(O)CCCC[C@@H]1SC[C@@H]2NC(=O)N[C@@H]21" : what is it?
Reply: > 90 µM

Query: What value of CC50 at 24 h has been recorded for this entry: "CC(C)C[C@H](NC(=O)OCC1c2ccccc2-c2ccccc21)C(=O)O"
Reply: > 90 µM

Query: # query: CC50 at 24 h of entry O=C(O)c1ccccc1Nc1cc(Cl)ccc1C(=O)O [Lobenzarit sodium]
Reply: > 50 µM

Query: Please report the recorded CC50 at 24 h for CC(COc1ccc(Oc2ccccc2)cc1)Oc1ccccn1 (centres unmarked) .
Reply: > 90 µM

Query: Can you share its CC50 at 24 h? I mean this compound: "O=c1ccc2ccccc2o1"
Reply: > 90 µM

Query: What does the record list as CC50 at 24 h for "Cc1ccc(C(C)(C)C)cc1" ?
Reply: > 90 µM

Query: For the compound O=C(O)C1CCC(C(=O)O)CC1 (centres unmarked) , what CC50 at 24 h is on record?
Reply: > 90 µM

Query: Item under review: "CC1=C(/C=C/C(C)=C/C=C/C(C)=C/CO)C(C)(C)CCC1" . Reported CC50 at 24 h?
Reply: 63.5 µM

Query: Param item = "CCCc1ccccc1O" ; retrieve measured CC50 at 24 h.
Reply: > 90 µM

Query: Bench note: what CC50 at 24 h did "CC(C)CCO" show?
Reply: > 90 µM

---

Assay: in vitro
Conditions: rat, gh3-tre-luc cells, AC50 (uM) modified / 1000, Tox21_110001=Tox21_301886; viability, 1 nM T3 present, 24 h
experimental_endpoint: CC50 at 24 h (µM)
Write the answer as a number in µM, unit excluded.

Query: Which CC50 at 24 h value is on record for "O=[N+]([O-])c1ccc(Nc2ccc(Nc3ccccc3)c(S(=O)(=O)O)c2)c([N+](=O)[O-])c1" ?
Reply: 76.1

---

Assay: in vitro
Details: rat, gh3-tre-luc cells, AC50 (uM) modified / 1000, Tox21_110001=Tox21_200376; viability, 1 nM T3 present, 24 h
experimental_endpoint: CC50 at 24 h

Query: What CC50 at 24 h value was documented for this compound, "Nc1ccc(-c2ccccc2)cc1" ?
Reply: > 90 µM

---

Experiment: in vitro
Conditions: rat, gh3-tre-luc cells, AC50 (uM) modified / 1000, Tox21_110001=Tox21_201140; viability, 1 nM T3 present, 24 h
experimental_endpoint: CC50 at 24 h

Query: I would be grateful if you could share the reported CC50 at 24 h for "ClCCCCl" .
Reply: > 100 µM

---

Test system: GH3-TRE-Luc cell line
Conditions: read-out: AC50 (uM) modified / 1000; Tox21_110001=Tox21_302646; viability, 1 nM T3 present, 24 h
experimental_endpoint: CC50 (µM)
Give the quantity in µM, number only.

Query: Reported CC50 for GH3-TRE-Luc cell line, given c1cc(N(CC2CO2)CC2CO2)ccc1OCC1CO1 (stereo not shown) ?
Reply: 25.4

---

Test: in vitro
Conditions: rat, gh3-tre-luc cells, AC50 (uM) modified / 1000, Tox21_110001=Tox21_111641; viability, 1 nM T3 present, 24 h
experimental_endpoint: CC50 at 24 h

Query: Please look up its CC50 at 24 h: CCC1(c2ccccc2)CCC(=O)NC1=O (stereo not shown) [Glutethimide]
Reply: > 50 µM

---

Kindly supply the reported CC50 at 24 h values for the records listed here.
Test: in vitro
Conditions: rat, gh3-tre-luc cells, AC50 (uM) modified / 1000
Where a name gives a salt, the structure may show the parent alone.

Query: Requested field: CC50 at 24 h. Item: "Nc1cc(Cl)cc(Cl)c1"
Reply: > 90 µM

Query: Name the reported CC50 at 24 h value associated with the compound CCOC(=O)c1ccccc1C [Ethyl 2-methylbenzoate]
Reply: > 90 µM

Query: CC50 at 24 h lookup needed for "Nc1cccc2c(N)cccc12" , thanks.
Reply: > 90 µM

Query: Tell me the measured CC50 at 24 h of "CCCCCCCCCCCCCCCCCl" , please.
Reply: > 20 µM

Query: # lookup: CC50 at 24 h of CC(=O)Nc1cccc(N)c1 [3-Aminoacetanilide]
Reply: > 90 µM

Query: Value lookup for CC50 at 24 h; key = "COc1ccc(C)cc1[N+](=O)[O-]"
Reply: > 90 µM

Query: Look at this compound and give its reported CC50 at 24 h. CCCCCCCCOc1ccccc1C(=O)Nc1ccc(C(=O)OCC[N+](C)(CC)CC)cc1 [Otilonium bromide]
Reply: 22.8 µM

Query: Need CC50 at 24 h of "CC1(C)[C@H](C(=O)O[C@H](C#N)c2cccc(Oc3ccccc3)c2)[C@@H]1C=C(Br)Br" , thanks.
Reply: > 100 µM

Query: Quick check: CC50 at 24 h of "COc1ccc(C)cc1N" ?
Reply: > 90 µM

Query: Form field: reported CC50 at 24 h of COc1ccccc1N [2-Methoxyaniline hydrochloride]
Reply: > 90 µM

Query: For the compound shown here, "Cc1cccc2cccnc12" , give the reported CC50 at 24 h.
Reply: > 90 µM

Query: Could you share which CC50 at 24 h value was measured for "O=[N+]([O-])c1ccccc1Nc1ccccc1" ?
Reply: > 90 µM

Query: For the compound "CCCOCCO" , what CC50 at 24 h is on record?
Reply: > 90 µM

Query: May I ask what CC50 at 24 h has been recorded for "Clc1ccc2nsnc2c1NC1=NCCN1" ?
Reply: > 50 µM

Query: Report CC50 at 24 h for CCCCCCCCCCCCCCCCCCOCC(O)CO (centres unmarked) please.
Reply: > 50 µM

Query: Which CC50 at 24 h is reported for this compound? CCC[C@@H]1C[C@@H](C(=O)N[C@@H]([C@H]2O[C@H](SC)[C@H](OP(=O)(O)O)[C@@H](O)[C@H]2O)[C@H](C)Cl)N(C)C1 [Clindamycin phosphate]
Reply: > 50 µM

Query: For the compound "CC(/C=C1\SC(=S)N(CC(=O)O)C1=O)=C\c1ccccc1" , what CC50 at 24 h is on record?
Reply: 42.6 µM

Query: Bench note: what CC50 at 24 h did COc1ccc(Cc2nccc3cc(OC)c(OC)cc23)cc1OC [Papaverine hydrochloride] show?
Reply: > 20 µM

Query: Can you share its CC50 at 24 h? I mean this compound: O=C(Cl)CCl [Chloroacetyl chloride]
Reply: > 90 µM

Query: Name the recorded CC50 at 24 h for "Cc1cc(C)nc(NS(=O)(=O)c2ccc(N)cc2)n1" .
Reply: > 90 µM

Query: Consider the compound shown here: "NCCCCCC(=O)O" What is its recorded CC50 at 24 h?
Reply: > 20 µM

Query: Data request, read-out CC50 at 24 h, for COC(=O)C1=C(C)NC(C)=C(C(=O)O[C@@H]2CCCN(Cc3ccccc3)C2)[C@@H]1c1cccc([N+](=O)[O-])c1 (racemic) [rac Benidipine hydrochloride]
Reply: 25.5 µM

Query: What CC50 at 24 h value was documented for this compound, "C=CCN1CC[C@]23CCCC[C@H]2[C@H]1Cc1ccc(O)cc13" ?
Reply: 28.6 µM

Query: Form field: reported CC50 at 24 h of O=[N+]([O-])c1cccc(S(=O)(=O)O)c1 [Sodium 3-nitrobenzenesulfonate]
Reply: > 90 µM

Query: Can you look up the measured CC50 at 24 h of "COc1cc(NS(=O)(=O)c2ccc(N)cc2)nc(C)n1" for me?
Reply: > 50 µM

Query: Look up CC50 at 24 h for this compound: O=C(Nc1cccc(C2=NCCN2)c1)Nc1cccc(C2=NCCN2)c1 [Imidocarb dipropionate]
Reply: > 50 µM

Query: For "NC(=O)Nc1nc2ccccc2[nH]1" , what is its reported CC50 at 24 h?
Reply: > 90 µM

Query: Sample O=C(O)c1cc(=O)c2c(OCC(O)COc3cccc4oc(C(=O)O)cc(=O)c34)cccc2o1 [Cromolyn sodium] — what was its CC50 at 24 h?
Reply: > 50 µM

Query: Reported CC50 at 24 h, compound CC(=O)OCCOC(C)=O [1,2-Ethanediol diacetate] : ____
Reply: > 90 µM

Query: May I ask what CC50 at 24 h has been recorded for CCCCCCCCCCCCCCCC(=O)O[C@@H]1[C@@H](O)[C@@H](O)[C@@H]([C@H](NC(=O)[C@@H]2C[C@@H](CCC)CN2C)[C@H](C)Cl)O[C@@H]1SC [Clindamycin palmitate hydrochloride] ?
Reply: > 50 µM

Query: Which CC50 at 24 h value is on record for c1ccc2c(c1)c1cccc3ccc4cccc2c4c31 [Benzo(e)pyrene] ?
Reply: > 90 µM

Query: Form field: reported CC50 at 24 h of CCOC(=O)[C@H](CCc1ccccc1)N[C@@H](C)C(=O)N(CC(=O)O)C1Cc2ccccc2C1 [Delapril hydrochloride]
Reply: > 50 µM

Query: Reported CC50 at 24 h for CCCC(=O)O[C@]1(C(=O)CO)CC[C@H]2[C@@H]3CCC4=CC(=O)CC[C@]4(C)[C@H]3[C@@H](O)C[C@@]21C [Hydrocortisone 17-butyrate] : what is it?
Reply: > 50 µM

Query: Could you share which CC50 at 24 h value was measured for Clc1cccc(C(c2ccc3[nH]cnc3c2)n2ccnc2)c1 (centres unmarked) [Liarozole hydrochloride] ?
Reply: > 50 µM

Query: Form field: reported CC50 at 24 h of COc1ccc(OC)c(CC(C)N)c1 (centres unmarked) [2,5-Dimethoxyamphetamine hydrochloride]
Reply: > 100 µM
